- System: MCF7
- ASSAY_COMMENT: Cytotoxicity against human MCF7 cells assessed as reduction in cell proliferation after 96 hrs by sulforhodamine B assay
- Type: functional, cell-based
- PROTOCOL_CONDITIONS: MCF7, 96 h

SMILES_REPR	ASSAYED_TARGET	SCALE_UNIT	EC50
CC(=O)O[C@H]1C[C@]2(C)[C@H]3CC=C4[C@@H]5CC(C)(C)CC[C@]5(NC(=O)Oc5ccccc5)CC[C@@]4(C)[C@]3(C)CC[C@H]2C(C)(C)[C@H]1OC(C)=O	MCF7	µM	5.8
CC1(C)CC[C@]2(C(=O)NCc3ccccc3)CC[C@]3(C)C(=CC[C@@H]4[C@@](C)(CC=O)[C@H](C(C)(C)C=O)CC[C@]43C)[C@@H]2C1	MCF7	µM	5.4
CC(=O)O[C@@H]1[C@H](OC(C)=O)C[C@]2(C)[C@H]3CC=C4[C@@H]5CC(C)(C)CC[C@]5(C(=O)NCc5ccccc5)CC[C@@]4(C)[C@]3(C)CC[C@H]2C1(C)C	MCF7	µM	7.8
CC(=O)O[C@H]1C[C@]2(C)[C@H]3CC=C4[C@@H]5CC(C)(C)CC[C@]5(C(=O)O)CC[C@@]4(C)[C@]3(C)CC[C@H]2C(C)(C)[C@@H]1OC(C)=O	MCF7	µM	14.8
CC(=O)O[C@H]1C[C@]2(C)[C@H]3CC=C4[C@@H]5CC(C)(C)CC[C@]5(C(=O)Nc5ccccc5)CC[C@@]4(C)[C@]3(C)CC[C@H]2C(C)(C)[C@H]1OC(C)=O	MCF7	µM	1.8

###

- System: HT-29
- ASSAY_COMMENT: Cytotoxicity against human HT-29 cells assessed as reduction in cell proliferation after 96 hrs by sulforhodamine B assay
- Type: functional, cell-based
- PROTOCOL_CONDITIONS: HT-29, 96 h
pEC50: −log10 of the molar value.

SMILES_REPR	pEC50
CC(=O)O[C@H]1C[C@]2(C)[C@H]3CC=C4[C@@H]5CC(C)(C)CC[C@]5(C(=O)O)CC[C@@]4(C)[C@]3(C)CC[C@H]2C(C)(C)[C@H]1OC(C)=O	4.73
CC1(C)CC[C@]2(C(=O)NCc3ccccc3)CC[C@]3(C)C(=CC[C@@H]4[C@@]5(C)C[C@H]6OC(C)(C)O[C@@H]6C(C)(C)[C@@H]5CC[C@]43C)[C@@H]2C1	4.59
CC(=O)O[C@H]1C[C@]2(C)[C@H]3CC=C4[C@@H]5CC(C)(C)CC[C@]5(C(=O)O)CC[C@@]4(C)[C@]3(C)CC[C@H]2C(C)(C)[C@@H]1OC(C)=O	4.78

###

- System: MCF7
- ASSAY_COMMENT: Cytotoxicity against human MCF7 cells assessed as reduction in cell proliferation after 96 hrs by sulforhodamine B assay
- Type: functional, cell-based
- PROTOCOL_CONDITIONS: MCF7, 96 h
pEC50: −log10 of the molar value.
Each entry below carries its reported pEC50.

SMILES_REPR	pEC50
CC(=O)O[C@@H]1C[C@]2(C)[C@H]3CC=C4[C@@H]5CC(C)(C)CC[C@]5(C(=O)NCCc5ccccc5)CC[C@@]4(C)[C@]3(C)CC[C@H]2C(C)(C)[C@H]1OC(C)=O	5.24
CC(=O)O[C@H]1C[C@]2(C)[C@H]3CC=C4[C@@H]5CC(C)(C)CC[C@]5(C(=O)NCc5ccccc5)CC[C@@]4(C)[C@]3(C)CC[C@H]2C(C)(C)[C@H]1OC(C)=O	5.46
CC(=O)O[C@@H]1C[C@]2(C)[C@H]3CC=C4[C@@H]5CC(C)(C)CC[C@]5(C(=O)Nc5ccccc5)CC[C@@]4(C)[C@]3(C)CC[C@H]2C(C)(C)[C@H]1OC(C)=O	5.51
COCO[C@@H]1C[C@]2(C)[C@H]3CC=C4[C@@H]5CC(C)(C)CC[C@]5(C(=O)NCc5ccccc5)CC[C@@]4(C)[C@]3(C)CC[C@H]2C(C)(C)[C@H]1O	5.26
CC(=O)O[C@H]1C[C@]2(C)[C@H]3CC=C4[C@@H]5CC(C)(C)CC[C@]5(C(=O)NCc5ccccc5)CC[C@@]4(C)[C@]3(C)CC[C@H]2C(C)(C)[C@@H]1OC(C)=O	5.12
CC(=O)O[C@@H]1C[C@]2(C)[C@H]3CC=C4[C@@H]5CC(C)(C)CC[C@]5(C(=O)O)CC[C@@]4(C)[C@]3(C)CC[C@H]2C(C)(C)[C@H]1OC(C)=O	4.78
CC(=O)O[C@H]1C[C@]2(C)[C@H]3CC=C4[C@@H]5CC(C)(C)CC[C@]5(NC(=O)c5ccccc5)CC[C@@]4(C)[C@]3(C)CC[C@H]2C(C)(C)[C@H]1OC(C)=O	4.77
COCCO[C@@H]1C[C@]2(C)[C@H]3CC=C4[C@@H]5CC(C)(C)CC[C@]5(C(=O)NCc5ccccc5)CC[C@@]4(C)[C@]3(C)CC[C@H]2C(C)(C)[C@H]1OCCOC	5.17
CC(=O)O[C@H]1C[C@]2(C)[C@H]3CC=C4[C@@H]5[C@@H](C)[C@H](C)CC[C@]5(C(=O)Nc5ccccc5)CC[C@@]4(C)[C@]3(C)CC[C@H]2C(C)(C)[C@H]1OC(C)=O	4.79
CO[C@@H]1C[C@]2(C)[C@H]3CC=C4[C@@H]5CC(C)(C)CC[C@]5(C(=O)NCc5ccccc5)CC[C@@]4(C)[C@]3(C)CC[C@H]2C(C)(C)[C@H]1OC	4.84
CC1(C)CC[C@]2(C(=O)NCc3ccccc3)CC[C@]3(C)C(=CC[C@@H]4[C@@]5(C)C[C@H]6OC(C)(C)O[C@@H]6C(C)(C)[C@@H]5CC[C@]43C)[C@@H]2C1	4.84
CC(=O)O[C@@H]1[C@H](OC(C)=O)C[C@]2(C)[C@H]3CC=C4[C@@H]5CC(C)(C)CC[C@]5(C(=O)O)CC[C@@]4(C)[C@]3(C)CC[C@H]2C1(C)C	4.75
CC1(C)CC[C@]2(C(=O)NCc3ccccc3)CC[C@]3(C)C(=CC[C@@H]4[C@@]5(C)C[C@H]6OCO[C@@H]6C(C)(C)[C@@H]5CC[C@]43C)[C@@H]2C1	4.78
CC(=O)O[C@@H]1C[C@]2(C)[C@H]3CC=C4[C@@H]5CC(C)(C)CC[C@]5(C(=O)NCc5ccccc5)CC[C@@]4(C)[C@]3(C)CC[C@H]2C(C)(C)[C@H]1OC(C)=O	5.11
